Origin of values: ChEMBL document CHEMBL1914323

# testName: Apparent permeability from apical to basolateral side of human Caco2 cells
# Format: ADME, cell-based
# runConditions: Caco-2
outcomeMeasure: Papp A→B (×10⁻⁶ cm/s)
Just the number please, in ×10⁻⁶ cm/s, no unit attached.

Query string: Return reported Papp A→B; argument: `CN[C@@H]1CCN(c2nc(N)nc3c2oc2ncc(Cl)cc23)C1`
Result string: 23

###

# testName: Solubility of the compound at pH 2
# Type: physicochemical
# runConditions: buffer
outcomeMeasure: solubility

Query string: Return reported solubility; argument: `CN[C@@H]1CCN(c2nc(N)nc3c2oc2ncc(Cl)cc23)C1`
Result string: > 0.4 µM

###

# testName: Clearance in dog at 2 mg/kg, iv
# Assay type: ADME, organism-based, Canis lupus familiaris
# Parameters: dose 2 mg/kg, route intravenous
# runConditions: in vivo
outcomeMeasure: clearance (mL/min/kg)
Just the number please, in mL/min/kg, no unit attached.

Query string: Return reported clearance; argument: `CN[C@@H]1CCN(c2nc(N)nc3c2oc2ncc(Cl)cc23)C1`
Result string: 21.7

###

# testName: Fraction unbound in mouse plasma
# Format: ADME, cell-free
outcomeMeasure: fraction unbound
The answer should be written as a number, with no unit following it.

Query string: Return reported fraction unbound; argument: `CN[C@@H]1CCN(c2nc(N)nc3c2oc2ncc(Cl)cc23)C1`
Result string: 0.18

###

# testName: Half life in rat at 10 mg/kg, po
# Format: ADME, organism-based
# Design: dose 10 mg/kg, route oral
# runConditions: in vivo
outcomeMeasure: half-life (h)
Just the number please, in h, no unit attached.

Query string: Return reported half-life; argument: `CN[C@@H]1CCN(c2nc(N)nc3c2oc2ncc(Cl)cc23)C1`
Result string: 6.8

###

# tgt: Histamine H4 receptor (Homo sapiens, UniProt Q9H3N8)
# Sequence (Q9H3N8 whole entry): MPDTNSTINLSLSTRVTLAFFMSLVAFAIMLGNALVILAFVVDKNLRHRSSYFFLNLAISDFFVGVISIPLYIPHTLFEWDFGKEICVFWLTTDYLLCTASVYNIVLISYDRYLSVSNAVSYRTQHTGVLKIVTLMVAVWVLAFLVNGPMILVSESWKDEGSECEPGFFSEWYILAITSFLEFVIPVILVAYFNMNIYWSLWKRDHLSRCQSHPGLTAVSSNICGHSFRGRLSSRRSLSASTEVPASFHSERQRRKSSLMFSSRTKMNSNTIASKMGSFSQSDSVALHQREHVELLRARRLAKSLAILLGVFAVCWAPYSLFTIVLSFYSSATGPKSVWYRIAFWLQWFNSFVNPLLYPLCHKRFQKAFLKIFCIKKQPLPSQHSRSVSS
# testName: Antagonist activity at recombinant human histamine H4 receptor
# Format: functional
# runConditions: read-out: pA2 (converted)
outcomeMeasure: Kb (nM)
Just the number please, in nM, no unit attached.

Query string: Return reported Kb; argument: `CN1CCN(c2ncnc3c2oc2ccc(Cl)cc23)CC1`
Result string: 2.51

Query string: Return reported Kb; argument: `CN[C@@H]1CCN(c2nc(N)nc3c2oc2ncc(Cl)cc23)C1`
Result string: 5.01

Query string: Return reported Kb; argument: `CN1CCN(c2nc(N)nc3c2oc2ccc(Cl)cc23)CC1`
Result string: 2

Query string: Return reported Kb; argument: CNC1CCN(c2nc(N)nc3c2oc2ccc(Cl)cc23)C1 (centres undefined)
Result string: 10

###

# testName: Cmax in dog at 10 mg/kg, po
# Assay type: ADME, organism-based, Canis lupus familiaris
# Design: dose 10 mg/kg, route oral
# runConditions: in vivo
outcomeMeasure: Cmax
Please provide the amount together with its unit, number first.

Query string: Return reported Cmax; argument: `CN[C@@H]1CCN(c2nc(N)nc3c2oc2ncc(Cl)cc23)C1`
Result string: 1800 nM

###

# tgt: Histamine H4 receptor (Homo sapiens)
# testName: Displacement of [3H]histamine from recombinant human histamine H4 receptor
outcomeMeasure: Ki (nM)
Just the number please, in nM, no unit attached.

Query string: Return reported Ki; argument: `Nc1nc(N2CCC[C@H](N)C2)c2oc3ccc(Cl)cc3c2n1`
Result string: 5.7

Query string: Return reported Ki; argument: `CN1CCN(CCCOc2ccc(-c3nc4cc(Cl)ccc4[nH]3)cc2)CC1`
Result string: 120

Query string: Return reported Ki; argument: `Nc1nc(N2CCNCC2)c2oc3cccc(Cl)c3c2n1`
Result string: 1050

Query string: Return reported Ki; argument: `CN[C@@H]1CCN(c2nc(N)nc3c2oc2ncc(Cl)cc23)C1`
Result string: 9.4

Query string: Return reported Ki; argument: `Nc1nc(N2C[C@@H]3C[C@H]2CN3)c2oc3cccc(Cl)c3c2n1`
Result string: 443

Query string: Return reported Ki; argument: `Nc1nc(N2C[C@H]3C[C@@H]2CN3)c2oc3ccc(Cl)cc3c2n1`
Result string: 104

Query string: Return reported Ki; argument: `CN1CCN(c2nc(N)nc3c2oc2ccc(Cl)cc23)CC1`
Result string: 0.1

Query string: Return reported Ki; argument: `CN1CCCN(c2nc(N)nc3c2oc2ncc(Cl)cc23)CC1`
Result string: 37

Query string: Return reported Ki; argument: `CN[C@@H]1CCN(c2nc(N)nc3c2oc2c(Cl)cc(Cl)cc23)C1`
Result string: 8

Query string: Return reported Ki; argument: `Nc1nc(N2CCNCC2)c2oc3ncc(Cl)cc3c2n1`
Result string: 35

Query string: Return reported Ki; argument: `CN1CCN(c2ncnc3c2sc2ccccc23)CC1`
Result string: 53

Query string: Return reported Ki; argument: Nc1nc(N2CC3CCNC3C2)c2oc3ncc(Cl)cc3c2n1 (stereo not drawn)
Result string: 139

Query string: Return reported Ki; argument: `CN[C@@H]1CCN(c2nc(N)nc3c2sc2cc(C(F)(F)F)ccc23)C1`
Result string: 125

Query string: Return reported Ki; argument: `CN[C@@H]1CCN(c2nc(N)nc3c2oc2ccc(OC)cc23)C1`
Result string: 11

Query string: Return reported Ki; argument: `Nc1nc(N2CCC[C@@H](N)C2)c2oc3ccc(Cl)cc3c2n1`
Result string: 9.1

Query string: Return reported Ki; argument: `CN1CCN(c2nc(N)nc3c2oc2ccc(Cl)c(Cl)c23)CC1`
Result string: 7.7

Query string: Return reported Ki; argument: `CN1CCN(c2ncnc3c2oc2ccc(Cl)cc23)CC1`
Result string: 4.7

Query string: Return reported Ki; argument: `Nc1nc(N2C[C@@H]3C[C@H]2CN3)c2oc3ccc(Cl)cc3c2n1`
Result string: 26

Query string: Return reported Ki; argument: `CN[C@H]1CCN(c2nc(N)nc3c2oc2ccc(Cl)cc23)C1`
Result string: 2

Query string: Return reported Ki; argument: `C[C@H]1CN(c2nc(N)nc3c2oc2ncc(Cl)cc23)CCN1`
Result string: 885

Query string: Return reported Ki; argument: `Nc1nc(N2C[C@@H]3C[C@H]2CN3)c2oc3ccccc3c2n1`
Result string: 196

Query string: Return reported Ki; argument: `CN1CCN(c2nc(N)nc3c2sc2ccc(Cl)cc23)CC1`
Result string: 0.3

Query string: Return reported Ki; argument: `CN[C@@H]1CCN(c2nc(N)nc3c2sc2ccc(F)cc23)C1`
Result string: 31

Query string: Return reported Ki; argument: `CN[C@H]1CCN(c2nc(N)nc3c2sc2ccc(Br)cc23)C1`
Result string: 65

Query string: Return reported Ki; argument: CNC1CCN(c2nc(N)nc3c2oc2ccc(Cl)cc23)C1 (stereo not drawn)
Result string: 0.9

Query string: Return reported Ki; argument: `Nc1nc(N2C[C@H]3CCCN[C@H]3C2)c2oc3ccc(Cl)cc3c2n1`
Result string: 4.7

Query string: Return reported Ki; argument: `CN[C@@H]1CCN(c2nc(N)nc3c2oc2ccc(F)cc23)C1`
Result string: 2

Query string: Return reported Ki; argument: `Nc1nc(N2CC(N)C2)c2oc3ncc(Cl)cc3c2n1`
Result string: 613

Query string: Return reported Ki; argument: `CN[C@@H]1CCN(c2nc(N)nc3c2oc2ccc(Br)cc23)C1`
Result string: 0.7

Query string: Return reported Ki; argument: `CN1CCN(c2ncnc3c2oc2ccccc23)CC1`
Result string: 56

Query string: Return reported Ki; argument: `CN1CCN(c2nc(N)nc3c2sc2cc(Cl)ccc23)CC1`
Result string: 18

Query string: Return reported Ki; argument: `Nc1nc(N2CC[C@@H](NCCO)C2)c2oc3ccc(Cl)cc3c2n1`
Result string: 46

Query string: Return reported Ki; argument: `Nc1nc(N2CC[C@@H](N)C2)c2oc3ncc(Cl)cc3c2n1`
Result string: 16

Query string: Return reported Ki; argument: `Nc1nc(N2CCNCC2)c2oc3c(Cl)cc(Cl)cc3c2n1`
Result string: 138

Query string: Return reported Ki; argument: `Nc1nc(N2CCNCC2)c2oc3cccc(F)c3c2n1`
Result string: 145

Query string: Return reported Ki; argument: `Nc1nc(N2CCNCC2)c2oc3ccc(Cl)c(Cl)c3c2n1`
Result string: 7.7

Query string: Return reported Ki; argument: CN1CCN(c2nc(N)nc3c4cc(Cl)ccc4[s+]([O-])c23)CC1 (stereo not drawn)
Result string: 1280

Query string: Return reported Ki; argument: `CN1CCN(c2nc(N)nc3c2oc2ncc(Cl)cc23)CC1`
Result string: 33

Query string: Return reported Ki; argument: `CN1CCN(c2nc(N)nc3c2oc2ccc(F)c(F)c23)CC1`
Result string: 156

###

Could you please report measured pKi for the items listed next?
# tgt: Histamine H4 receptor (Homo sapiens, UniProt Q9H3N8)
# testName: Displacement of [3H]histamine from recombinant human histamine H4 receptor
# log scale: pKi equals minus log10 of the concentration in mol/L

Query string: Return reported pKi; argument: `CN[C@@H]1CCN(c2nc(N)nc3c2oc2cccc(Cl)c23)C1`
Result string: 7.40

Query string: Return reported pKi; argument: `NCC1CN(c2nc(N)nc3c2oc2ncc(Cl)cc23)C1`
Result string: 6.42

Query string: Return reported pKi; argument: `CN[C@H]1CCN(c2nc(N)nc3c2sc2ccc(Cl)cc23)C1`
Result string: 7.12

Query string: Return reported pKi; argument: `CN[C@@H]1CCN(c2nc(N)nc3c2oc2ccc(Cl)cc23)C1`
Result string: 9.40

Query string: Return reported pKi; argument: `Nc1nc(N2CCNCC2)c2oc3ccc(F)c(F)c3c2n1`
Result string: 6.81

Query string: Return reported pKi; argument: `Nc1nc(N2C[C@@H]3CCCN[C@@H]3C2)c2oc3ccc(Cl)cc3c2n1`
Result string: 7.68

Query string: Return reported pKi; argument: `CN[C@@H]1CCN(c2nc(N)nc3c2sc2ccc(Cl)cc23)C1`
Result string: 8.00

Query string: Return reported pKi; argument: `NC[C@H]1CCN(c2nc(N)nc3c2oc2ccc(Cl)cc23)C1`
Result string: 6.86

Query string: Return reported pKi; argument: `Nc1nc(N2CCC[C@H](N)C2)c2oc3ccc(C(F)(F)F)cc3c2n1`
Result string: 7.38
